Please provide measured GI50 for the entries that follow.
test system: PC-3; test: NCI tumour cell line growth inhibition, 48 h
Activity calls are given as the source filed them. Cut-off read from the data, not from the text of the source: active = GI50 up to about 1.1 µM and inactive = higher.

Before answering, review these 5 worked examples.
>  <Compound>
Cc1cc(C)n(C2OC(CO)C(O)C(O)C2O)c(=S)c1C#N (stereo not drawn)

>  <GI50>
> 100 µM (inactive)

$$$$
>  <Compound>
CC1OC(OC2C(O[C@@H]3C[C@@H]4CC[C@@H]5[C@H](CC[C@]6(C)[C@@H]7[C@H](C[C@@H]56)O[C@]5(CC[C@@H](C)CO5)[C@H]7C)[C@@]4(C)C[C@H]3O)OC(CO)C(OC3OC(CO)C(O)C(O)C3O)C2O)C(O)C(O)C1O (stereo partly drawn)

>  <GI50>
1.52 µM (inactive)

$$$$
>  <Compound>
COc1ccc(Nc2nc3ccc(C(F)(F)F)cc3nc2C(=O)O)cc1OC

>  <GI50>
26.5 µM (inactive)

$$$$
>  <Compound>
Cc1nc(O)nc(N/N=C/c2ccc(Cl)cc2)c1C(=O)NC(C)(CO)CO

>  <GI50>
> 100 µM (inactive)

$$$$
>  <Compound>
Cc1cc(OCc2nn(CN3CCN(C)CC3)c(=S)n2/N=C/c2ccc(-c3ccc(Cl)cc3Cl)o2)ccc1Cl

>  <GI50>
85.3 µM (inactive)

$$$$

# map each compound to its GI50
1. CC(C)(C)OC(=O)NCCC(N)=S
2. O=P1(Cc2ccccc2)N(Cc2ccccc2)[C@@H]2CCCC[C@H]2N1Cc1ccccc1

1. > 100 µM (inactive)
2. 4.18 µM (inactive)

May I ask what GI50 has been recorded for CCOC(=O)C(=[N+]=[N-])C(=O)Nc1nn2nnnc2c2ccccc12 ?
> 100 µM (inactive)

* * *

test system: RXF 393; assay: NCI tumour cell line growth inhibition, 48 h
Activity calls are given as the source filed them. Rule as the data show it: active = GI50 up to about 1.1 µM and inactive = higher.
# valid calls are Yes = active, No = inactive; nothing else

Past entries and their recorded results:
>  <Compound>
CC(C)=CC[S+]([O-])c1ccccc1NC1=CC(=O)CC(C)(C)C1 (stereo unspecified)

>  <Class>
No

$$$$
>  <Compound>
COc1ccc(-c2nc(O)c3ccccc3n2)cc1

>  <Class>
No

$$$$
>  <Compound>
COc1cc2c(c(OC)c1OC)-c1ccc(SC)c(=O)cc1[C@@H](NC(=O)c1ccc(C#N)cc1)CC2

>  <Class>
Yes

$$$$
>  <Compound>
Cc1cccc2c1Oc1cc(Cl)ccc1C2NC(=O)CN(C)C (stereo unspecified)

>  <Class>
No

$$$$
>  <Compound>
C=C1CC2(C[C@@H](c3ccccc3)O[C@@H](c3ccccc3)C2)OC1=O (stereo partly specified)

>  <Class>
No

$$$$

Hi, do you know how N#CC(C(=O)C(=O)Nc1ccc(Cl)c(Cl)c1)c1ccc(Cl)cc1 (stereo unspecified) came out in this test?
No

Hi, do you know how NC(=O)c1csc(C2OC(CO)C(O)C2O)n1 (stereo unspecified) came out in this test?
No

Hi, do you know how CCCCC#C[I+]c1ccccc1 came out in this test?
No

Hi, do you know how Cc1cc(C)n(C2OC(CO)C(O)C(O)C2O)c(=S)c1C#N (stereo unspecified) came out in this test?
No

Hi, do you know how CCCC(C)c1c(Cl)nc(Cl)nc1Cl (stereo unspecified) came out in this test?
No

Hi, do you know how CC(C)(C)c1ccc(O)c(CN(Cc2cc(C(C)(C)C)ccc2O)c2ccccc2)c1 came out in this test?
No

Origin of the recorded values: ChEMBL document CHEMBL1201862
